Recorded pIC50 by entry
# target-of-assay: His-tagged human recombinant active PKC theta (Homo sapiens, UniProt Q04759)
# Construct: His
# Sequence (Q04759 whole entry): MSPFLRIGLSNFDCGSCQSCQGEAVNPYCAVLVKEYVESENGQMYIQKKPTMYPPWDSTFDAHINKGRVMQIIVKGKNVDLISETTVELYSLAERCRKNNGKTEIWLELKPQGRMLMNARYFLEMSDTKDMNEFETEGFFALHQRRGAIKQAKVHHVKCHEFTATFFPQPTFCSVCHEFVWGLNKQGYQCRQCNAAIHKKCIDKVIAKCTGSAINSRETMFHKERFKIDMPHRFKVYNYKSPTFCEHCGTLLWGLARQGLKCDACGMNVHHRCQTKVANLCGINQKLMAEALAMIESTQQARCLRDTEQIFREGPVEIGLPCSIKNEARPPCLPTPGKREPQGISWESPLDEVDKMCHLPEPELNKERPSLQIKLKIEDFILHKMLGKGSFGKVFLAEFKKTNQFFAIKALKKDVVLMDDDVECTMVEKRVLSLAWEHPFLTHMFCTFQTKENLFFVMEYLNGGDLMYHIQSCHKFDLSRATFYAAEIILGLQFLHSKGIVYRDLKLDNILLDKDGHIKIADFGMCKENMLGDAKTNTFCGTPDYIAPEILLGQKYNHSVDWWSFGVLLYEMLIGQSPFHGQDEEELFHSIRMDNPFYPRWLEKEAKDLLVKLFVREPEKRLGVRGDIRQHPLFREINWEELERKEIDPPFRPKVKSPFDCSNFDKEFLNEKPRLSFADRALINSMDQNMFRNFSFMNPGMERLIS
# method: IMAP fluorescence polarization assay, inhibition of PKC theta kinase activity
# measurement-context: ATP 10 μM, peptide substrate 50 nM, 60 minutes at 30° C.; read-out: IC50 IMAP PKCθ
# Procedure: Inhibition of PKC theta kinase activity was measured using an Immobilized Metal for Phosphochemicals—based coupled assay (IMAP). IMAP is a homogeneous fluorescence polarization (FP) assay based on affinity capture of phosphorylated peptide substrates. […] Enzymes, substrate and ATP are diluted at all steps in Kinase Reaction buffer (10 mM Tris-HCl, 10 mM MgCl2, 0.01% Tween-20, 0.05% NaN3 pH 7.2, 1 mM DTT). […] Finally, the FP signal is read.
pIC50: −log10 of the molar value.

Solved entries (count: 5):
* Fc1ccc(CNc2ncc3cc(-c4ccccc4Cl)n(C[C@@H]4CCCNC4)c3n2)cc1F | > 8.00
* Fc1ccc(CNc2ncc3c(Br)c(-c4c(Cl)cccc4Cl)n(C[C@@H]4CCCNC4)c3n2)cc1F | > 8.00
* Oc1ccc(-c2cc3cnc(NCc4ccc(F)c(F)c4)nc3n2C[C@@H]2CCCNC2)c(Cl)c1 | > 8.00
* Fc1ccc(CNc2ncc3c(F)c(-c4c(Cl)cccc4Cl)n(C[C@@H]4CCCNC4)c3n2)cc1F | > 8.00
* N#Cc1c(-c2c(Cl)cccc2Cl)n(C[C@@H]2CCCNC2)c2nc(NCc3ccc(F)c(F)c3)ncc12 | > 8.00

// pIC50 lookup, molecule = Fc1ccc(CNc2ncc3cc(-c4ccc(Cl)cc4Cl)n(C[C@@H]4CCCNC4)c3n2)cc1F , result: 7.00 to 8.00

// pIC50 lookup, molecule = Oc1ccc(CNc2ncc3cc(-c4ccccc4Cl)n(C[C@@H]4CCCNC4)c3n2)cc1 , result: 7.00 to 8.00

// pIC50 lookup, molecule = Fc1ccc(CNc2ncc3cc(-c4c(Cl)cccc4Cl)n(CC4CNCCS4)c3n2)cc1F (centres unmarked) , result: > 8.00

* * *

Recorded IC50 by entry
# target-of-assay: His-tagged human recombinant active PKC theta (Homo sapiens)
# Construct: His; made in house
# method: IMAP fluorescence polarization assay, inhibition of PKC theta kinase activity
# Type: biochemical
# measurement-context: ATP 10 μM, peptide substrate 50 nM, 60 minutes at 30° C.; read-out: IC50 IMAP PKCθ

Solved entries (count: 7):
- Oc1ccc(CNc2ncc3cc(-c4c(Cl)cccc4Cl)n(C[C@@H]4CCCNC4)c3n2)cc1F: < 10 nM
- Fc1ccc(CNc2ncc3cc(-c4c(Cl)cccc4Cl)n(C4CCCNCC4)c3n2)cc1F (centres unmarked): < 10 nM
- Cc1c(-c2ccccc2Cl)n(C[C@@H]2CCCNC2)c2nc(NCc3ccc(F)c(F)c3)ncc12: 10 to 100 nM
- Cc1c(-c2c(Cl)cccc2Cl)n(C[C@@H]2CCCNC2)c2nc(NCc3ccc(F)c(F)c3)ncc12: < 10 nM
- Fc1ccc(CNc2ncc3cc(-c4ccccc4Cl)n(C[C@H]4CCNC4)c3n2)cc1F: 10 to 100 nM
- Oc1cccc(CNc2ncc3cc(-c4c(Cl)cccc4Cl)n(C[C@@H]4CCCNC4)c3n2)c1: < 10 nM
- Fc1cccc(CNc2ncc3cc(-c4c(Cl)cccc4Cl)n(C[C@@H]4CCCNC4)c3n2)c1: < 10 nM

// IC50 lookup, compound = Cc1c(-c2ccccc2)n(C[C@@H]2CCCNC2)c2nc(NCc3ccc(F)c(F)c3)ncc12 , result: 100 to 10000 nM

* * *

Recorded IC50 by entry
# target-of-assay: His-tagged human recombinant active PKC theta (Homo sapiens, UniProt Q04759)
# Construct: His
# method: IMAP fluorescence polarization assay, inhibition of PKC theta kinase activity
# measurement-context: ATP 10 μM, peptide substrate 50 nM, 60 minutes at 30° C.; read-out: IC50 IMAP PKCθ

- COc1ccc(-c2cc3cnc(NCc4ccc(F)c(F)c4)nc3n2C[C@@H]2CCCNC2)c(Cl)c1: 10 to 100 nM
- Fc1ccc(CNc2ncc3cc(-c4ccccc4Cl)n(CC4CNCCO4)c3n2)cc1F (centres unmarked): 10 to 100 nM
- Clc1cccc(Cl)c1-c1cc2cnc(NCc3ccccc3)nc2n1C[C@@H]1CCCNC1: < 10 nM
- Cc1ccc(-c2cc3cnc(NCc4ccc(F)c(F)c4)nc3n2C[C@@H]2CCCNC2)c(Cl)c1: < 10 nM
- Oc1ccc(CNc2ncc3cc(-c4c(Cl)cccc4Cl)n(C[C@@H]4CCCNC4)c3n2)cc1Cl: < 10 nM
- Oc1ccc(CNc2ncc3cc(-c4ccccc4Cl)n(C[C@@H]4CCCNC4)c3n2)cc1F: < 10 nM

// IC50 lookup, molecule = Fc1ccc(CNc2ncc3cc(-c4c(Cl)cccc4Cl)n(C[C@@H]4CCCNC4)c3n2)cc1F , result: < 10 nM

// IC50 lookup, molecule = COc1ccc(CNc2ncc3cc(-c4c(Cl)cccc4Cl)n(C[C@@H]4CCCNC4)c3n2)cc1F , result: < 10 nM

* * *

# target-of-assay: His-tagged human recombinant active PKC theta (Homo sapiens, UniProt Q04759)
# Construct: His
# method: IMAP fluorescence polarization assay, inhibition of PKC theta kinase activity
# measurement-context: ATP 10 μM, peptide substrate 50 nM, 60 minutes at 30° C.; read-out: IC50 IMAP PKCθ
# Description: Inhibition of PKC theta kinase activity was measured using an Immobilized Metal for Phosphochemicals—based coupled assay (IMAP). IMAP is a homogeneous fluorescence polarization (FP) assay based on affinity capture of phosphorylated peptide substrates. […] Enzymes, substrate and ATP are diluted at all steps in Kinase Reaction buffer (10 mM Tris-HCl, 10 mM MgCl2, 0.01% Tween-20, 0.05% NaN3 pH 7.2, 1 mM DTT). […] Finally, the FP signal is read.
endpoint-name: IC50

Solved entries (count: 4):
* Oc1cccc(CNc2ncc3cc(-c4ccccc4Cl)n(C[C@@H]4CCCNC4)c3n2)c1 | 0.01 to 0.1 µM
* Fc1ccc(CNc2ncc3cc(-c4ccccc4Cl)n(C[C@H]4CCCNC4)c3n2)cc1F | 0.01 to 0.1 µM
* Fc1ccc(CNc2ncc3cc(-c4ccccc4Cl)n(C[C@@H]4CCNC4)c3n2)cc1F | 0.1 to 10 µM
* Fc1cc(Cl)c(-c2cc3cnc(NCc4ccc(F)c(F)c4)nc3n2C[C@@H]2CCCNC2)c(Cl)c1 | < 0.01 µM

Now let's try a different one.
// IC50 lookup, molecule = Oc1ccc(CNc2ncc3cc(-c4c(Cl)cccc4Cl)n(C[C@@H]4CCCNC4)c3n2)cc1 , result: 0.1 to 10 µM
